Test system: MOLT-4 leukemia
ASSAY NAME: NCI tumour cell line growth inhibition, 48 h
Each entry below carries its recorded TGI.
Give the value, in units of µM, as a plain number.

> print(dat)
                                 smiles.str  observable  readout.number
1  CCC[CH2][Sn]([CH2]CCC)([CH2]CCC)[O]c1ccc(Cl)cc1Cl         TGI            2.77
2  Clc1nc(Cl)c2ncn(Cc3cccc(Cn4cnc5c(Cl)nc(Cl)nc54)c3)c2n1         TGI            13.7

Note: attention shifts to another entry.
Consider O=C(/C=C/c1ccc(O)cc1)c1ccc2c(c1)OCO2 . Its measured TGI is 52.3
